Source listed as patent US11679110B2.

Test: Plasma pharmacokinetics of Compound 1 in patients with advanced solid tumor malignancies and TGCT
Type: in vivo, human
Conditions: human, plasma, oral, 20 mg, Cohort 4 20 mg Twice Weekly after 5-day QD loading dose; C2D1; GM (CV %)
assayMetric: Cmax (ng/mL)
Number only, in ng/mL; omit the unit.

Fill in the blank: the reported Cmax of "Cc1nc(-c2cnc(NC(C)C)n(C)c2=O)ccc1Oc1ccnc(-c2cnn(C)c2)c1" is ____.
642

---

Assay: Plasma pharmacokinetics of Compound 1 in patients with advanced solid tumor malignancies and TGCT
Format: in vivo, human
Details: human, plasma, oral, 30 mg, Cohort 6 30 mg QD x 5 d, BIW maintenance dose (so in the source); C2D1; Geo Mean; read-out: AUC0-8 h
assayMetric: AUC(0-t) (ng·h/mL)
Number only, in ng·h/mL; omit the unit.

Fill in the blank: the reported AUC(0-t) of "Cc1nc(-c2cnc(NC(C)C)n(C)c2=O)ccc1Oc1ccnc(-c2cnn(C)c2)c1" is ____.
7290

---

Experiment: Plasma pharmacokinetics of Compound 1 in patients with advanced solid tumor malignancies and TGCT
Format: in vivo, human
Settings: human, plasma, oral, 20 mg, Cohort 4 20 mg Twice Weekly after 5-day QD loading dose; Day-7; GM (CV %); read-out: AUC0-8
assayMetric: AUC(0-t) (ng·h/mL)
Number only, in ng·h/mL; omit the unit.

Fill in the blank: the reported AUC(0-t) of "Cc1nc(-c2cnc(NC(C)C)n(C)c2=O)ccc1Oc1ccnc(-c2cnn(C)c2)c1" is ____.
1090

---

Experiment: Plasma pharmacokinetics of Compound 1 in patients with advanced solid tumor malignancies and TGCT
Assay type: in vivo, human
Details: human, plasma, oral, 50 mg, Cohort 7 50 mg QD x 3 d, QD maintenance dose; C2D1; Geo Mean; read-out: AUC0-8 h
assayMetric: AUC(0-t) (ng·h/mL)
Number only, in ng·h/mL; omit the unit.

Fill in the blank: the reported AUC(0-t) of Cc1nc(-c2cnc(NC(C)C)n(C)c2=O)ccc1Oc1ccnc(-c2cnn(C)c2)c1 [Compound 1] is ____.
7980

---

Assay: Plasma pharmacokinetics of Compound 1 in patients with advanced solid tumor malignancies and TGCT
Assay type: in vivo, human
Conditions: human, plasma, oral, Cohort 7 20 mg QD after 3-day 50 mg QD loading dose; C2D1; GM (CV %)
assayMetric: Cmax (µg/mL)
Number only, in µg/mL; omit the unit.

Fill in the blank: the reported Cmax of Cc1nc(-c2cnc(NC(C)C)n(C)c2=O)ccc1Oc1ccnc(-c2cnn(C)c2)c1 [Compound 1] is ____.
0.84

---

Assay: Plasma pharmacokinetics of Compound 1 in patients with advanced solid tumor malignancies and TGCT
Format: in vivo, human
Conditions: human, plasma, oral, 40 mg, Cohort 6 40 mg Twice Weekly after 5-day QD loading dose; Day-7; Median (Min, Max)
assayMetric: Tmax (h)
Number only, in h; omit the unit.

Fill in the blank: the reported Tmax of "Cc1nc(-c2cnc(NC(C)C)n(C)c2=O)ccc1Oc1ccnc(-c2cnn(C)c2)c1" is ____.
4

---

Assay: Plasma pharmacokinetics of Compound 1 in patients with advanced solid tumor malignancies and TGCT
Assay type: in vivo, human
Settings: human, plasma, oral, 20 mg, Cohort 4 20 mg Twice Weekly after 5-day QD loading dose; C2D1; GM (CV %); read-out: AUC0-8
assayMetric: AUC(0-t) (ng·h/mL)
Number only, in ng·h/mL; omit the unit.

Fill in the blank: the reported AUC(0-t) of "Cc1nc(-c2cnc(NC(C)C)n(C)c2=O)ccc1Oc1ccnc(-c2cnn(C)c2)c1" is ____.
4300

---

Test: Plasma pharmacokinetics of Compound 1 in patients with advanced solid tumor malignancies and TGCT
Assay type: in vivo, human
Conditions: human, plasma, oral, 30 mg, Cohort 5 30 mg QD x 5 d, BIW maintenance dose; C2D1; Geo Mean
assayMetric: Cmax (ng/mL)
Number only, in ng/mL; omit the unit.

Fill in the blank: the reported Cmax of "Cc1nc(-c2cnc(NC(C)C)n(C)c2=O)ccc1Oc1ccnc(-c2cnn(C)c2)c1" is ____.
953

---

Test: Plasma pharmacokinetics of Compound 1 in patients with advanced solid tumor malignancies and TGCT
Format: in vivo, human
Settings: human, plasma, oral, 10 mg, Cohort 1 10 mg QD; C1D1; GM (CV %)
Experimental: PK analysis was conducted on all 38 patients. […] PD effects were measured by two methodologies: 1) depletion of CSF1R-expressing monocytes in peripheral blood (Cohorts 1-7) from C1D1, C1D15 and C2D1; and 2) increase of plasma levels of CSF1 and IL-34, the ligands for CSF1R (Cohorts 1-7) on C1D1, C1D15, and C2D1. […]
assayMetric: Cmax

Fill in the blank: the reported Cmax of "Cc1nc(-c2cnc(NC(C)C)n(C)c2=O)ccc1Oc1ccnc(-c2cnn(C)c2)c1" is ____.
155 ng/mL

---

Test: Plasma pharmacokinetics of Compound 1 in patients with advanced solid tumor malignancies and TGCT
Format: in vivo, human
Details: human, plasma, oral, 20 mg, Cohort 3 20 mg Weekly after 5-day QD loading dose; C1D8; Median (Min, Max)
assayMetric: Tmax
A bare number is not enough; add the unit after it.

Fill in the blank: the reported Tmax of Cc1nc(-c2cnc(NC(C)C)n(C)c2=O)ccc1Oc1ccnc(-c2cnn(C)c2)c1 [Compound 1] is ____.
1 h

---

Assay: Plasma pharmacokinetics of Compound 1 in patients with advanced solid tumor malignancies and TGCT
Type: in vivo, human
Conditions: human, plasma, oral, 20 mg, Cohort 3 20 mg Weekly after 5-day QD loading dose; C2D1; GM (CV %)
assayMetric: Cmax
A bare number is not enough; add the unit after it.

Fill in the blank: the reported Cmax of "Cc1nc(-c2cnc(NC(C)C)n(C)c2=O)ccc1Oc1ccnc(-c2cnn(C)c2)c1" is ____.
530 ng/mL

---

Assay: Plasma pharmacokinetics of Compound 1 in patients with advanced solid tumor malignancies and TGCT
Format: in vivo, human
Details: human, plasma, oral, 10 mg, Cohort 2 10 mg Twice Weekly after 5-day QD loading dose; C1D8; GM (CV %); read-out: AUC0-8
assayMetric: AUC(0-t) (ng·h/mL)
Number only, in ng·h/mL; omit the unit.

Fill in the blank: the reported AUC(0-t) of Cc1nc(-c2cnc(NC(C)C)n(C)c2=O)ccc1Oc1ccnc(-c2cnn(C)c2)c1 [Compound 1] is ____.
1730

---

Test: Plasma pharmacokinetics of Compound 1 in patients with advanced solid tumor malignancies and TGCT
Assay type: in vivo, human
Conditions: human, plasma, oral, 20 mg, Cohort 4 20 mg Twice Weekly after 5-day QD loading dose; C2D1; Median (Min, Max)
assayMetric: Tmax (min)
Number only, in min; omit the unit.

Fill in the blank: the reported Tmax of Cc1nc(-c2cnc(NC(C)C)n(C)c2=O)ccc1Oc1ccnc(-c2cnn(C)c2)c1 [Compound 1] is ____.
30

---

Assay: Plasma pharmacokinetics of Compound 1 in patients with advanced solid tumor malignancies and TGCT
Format: in vivo, human
Conditions: human, plasma, oral, 20 mg, Cohort 4 20 mg Twice Weekly after 5-day QD loading dose; C1D8; Median (Min, Max)
assayMetric: Tmax (h)
Number only, in h; omit the unit.

Fill in the blank: the reported Tmax of "Cc1nc(-c2cnc(NC(C)C)n(C)c2=O)ccc1Oc1ccnc(-c2cnn(C)c2)c1" is ____.
2.25

---

Experiment: Plasma pharmacokinetics of Compound 1 in patients with advanced solid tumor malignancies and TGCT
Type: in vivo, human
Details: human, plasma, oral, 40 mg, Cohort 6 40 mg Twice Weekly after 5-day QD loading dose; Day-7; GM (CV %)
assayMetric: Cmax (ng/mL)
Number only, in ng/mL; omit the unit.

Fill in the blank: the reported Cmax of "Cc1nc(-c2cnc(NC(C)C)n(C)c2=O)ccc1Oc1ccnc(-c2cnn(C)c2)c1" is ____.
454

---

Test: Plasma pharmacokinetics of Compound 1 in patients with advanced solid tumor malignancies and TGCT
Assay type: in vivo, human
Settings: human, plasma, oral, 10 mg, Cohort 1 10 mg QD; Day -7; Geo Mean; read-out: AUC0-8 h
assayMetric: AUC(0-t)
A bare number is not enough; add the unit after it.

Fill in the blank: the reported AUC(0-t) of "Cc1nc(-c2cnc(NC(C)C)n(C)c2=O)ccc1Oc1ccnc(-c2cnn(C)c2)c1" is ____.
429 ng·h/mL

---

Assay: Plasma pharmacokinetics of Compound 1 in patients with advanced solid tumor malignancies and TGCT
Assay type: in vivo, human
Settings: human, plasma, oral, 20 mg, Cohort 3 20 mg QD x 5 d, QW maintenance dose; C2D1; Geo Mean
assayMetric: Cmax

Fill in the blank: the reported Cmax of "Cc1nc(-c2cnc(NC(C)C)n(C)c2=O)ccc1Oc1ccnc(-c2cnn(C)c2)c1" is ____.
530 ng/mL

---

Assay: in vivo
Settings: beagle, dog
assayMetric: NOAEL at 13 weeks (mg/kg/day)
Number only, in mg/kg/day; omit the unit.

Fill in the blank: the reported NOAEL at 13 weeks of "Cc1nc(-c2cnc(NC(C)C)n(C)c2=O)ccc1Oc1ccnc(-c2cnn(C)c2)c1" is ____.
8
